Target or system Intestinal-type alkaline phosphatase (Homo sapiens): recorded pIC50 listed per item.
pIC50: −log10 of the molar value.

Examples with answers:
molecule	pIC50
CC(C)C[C@H](N)C(N)=O [LEUCINE AMIDE]	< 5.30
N[C@@H](Cc1c[nH]c2ccccc12)C(=O)O	< 5.30

Here's the next entry for you.
Exercise: Form entry - test system: Intestinal-type alkaline phosphatase (Homo sapiens); read-out: pIC50; molecule: `Cn1c(=O)c2[nH]cnc2n(C)c1=O`
Sequence (P09923 whole entry): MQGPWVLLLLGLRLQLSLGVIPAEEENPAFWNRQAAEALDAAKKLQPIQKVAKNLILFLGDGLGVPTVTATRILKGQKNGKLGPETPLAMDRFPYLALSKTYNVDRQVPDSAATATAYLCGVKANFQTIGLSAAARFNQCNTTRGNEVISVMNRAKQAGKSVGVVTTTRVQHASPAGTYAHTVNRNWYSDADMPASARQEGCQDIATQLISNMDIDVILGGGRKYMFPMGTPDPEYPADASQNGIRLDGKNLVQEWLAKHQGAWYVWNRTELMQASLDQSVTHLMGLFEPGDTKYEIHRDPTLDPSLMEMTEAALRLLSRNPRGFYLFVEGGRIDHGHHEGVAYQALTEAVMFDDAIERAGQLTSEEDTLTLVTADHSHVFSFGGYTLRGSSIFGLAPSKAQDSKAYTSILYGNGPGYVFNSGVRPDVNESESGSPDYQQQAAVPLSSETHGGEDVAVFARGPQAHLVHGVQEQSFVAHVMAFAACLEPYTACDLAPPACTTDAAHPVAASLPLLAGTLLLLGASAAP
Key: < 5.30

----------
- testTarget: Alkaline phosphatase, germ cell type (Homo sapiens, UniProt P10696)
- Sequence (P10696 whole entry): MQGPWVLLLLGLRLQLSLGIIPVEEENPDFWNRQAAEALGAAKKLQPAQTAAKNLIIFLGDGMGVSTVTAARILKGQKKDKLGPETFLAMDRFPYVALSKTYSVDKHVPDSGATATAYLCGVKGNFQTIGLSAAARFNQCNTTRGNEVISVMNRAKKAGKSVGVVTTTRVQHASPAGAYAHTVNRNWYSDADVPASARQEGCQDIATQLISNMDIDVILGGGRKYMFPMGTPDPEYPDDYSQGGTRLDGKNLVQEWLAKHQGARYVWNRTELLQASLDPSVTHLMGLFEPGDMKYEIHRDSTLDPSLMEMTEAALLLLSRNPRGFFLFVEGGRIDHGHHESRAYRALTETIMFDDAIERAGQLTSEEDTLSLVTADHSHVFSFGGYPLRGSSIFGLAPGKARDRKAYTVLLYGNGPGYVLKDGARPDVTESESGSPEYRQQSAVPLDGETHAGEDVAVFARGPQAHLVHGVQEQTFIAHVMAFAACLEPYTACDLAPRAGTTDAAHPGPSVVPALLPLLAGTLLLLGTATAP
endpoint: pIC50
Expect pIC50 as a plain number equal to -log10 of the molar concentration.

Exercise: Entry `Cc1nccn1CC(=O)c1ccc(O)c(O)c1` : reported pIC50 = ?
Key: 4.52

Exercise: Entry `O=C(CNc1nc2ccccc2[nH]1)c1ccc(O)c(O)c1` : reported pIC50 = ?
Key: 5.21

Exercise: Entry `Cc1nc2ccccc2n1CC(=O)c1ccc(O)c(O)c1` : reported pIC50 = ?
Key: 5.03
